- System: Nucleic Acid
- Protocol notes: Association constant to an isolated site calf thymus DNA
- Format: nucleic-acid assay
- Condition context: Bos taurus
Measurement type: Binding constant

// solved cases for Binding constant follow
Cc1cc2occ(C)c2c2oc(=O)ccc12 | 5400
O=c1ccc2ccc3occc3c2o1 [ANGELICIN] | 560
Cc1coc2ccc3ccc(=O)oc3c12 | 975

(1) Cc1cc(=O)oc2c1ccc1occ(C)c12
(2) COc1c2occc2cc2ccc(=O)oc12 [METHOXSALEN]
Prompt: # compare Binding constant for 1 vs 2 ; return the one with the smaller value Let me know the label of the one you choose.
Completion: 2

----------
Quick list: Relative activity per entry.
- Protocol notes: In vivo inhibition of epidermal DNA synthesis in mouse after topical application relative to that of 8-MOP
- Format: functional
API doc: respond with a numeric literal and nothing else, no unit.

Prompt: Please give measured Relative activity of the following entry: Cc1coc2ccc3ccc(=O)oc3c12
Completion: 0.95

Prompt: Please give measured Relative activity of the following entry: O=c1ccc2ccc3occc3c2o1
Completion: 0.28

Prompt: Please give measured Relative activity of the following entry: Cc1cc2occ(C)c2c2oc(=O)ccc12
Completion: 0.95

Prompt: Please give measured Relative activity of the following entry: Cc1cc(=O)oc2c1ccc1occ(C)c12
Completion: 0.72

Prompt: Please give measured Relative activity of the following entry: COc1c2occc2cc2ccc(=O)oc12
Completion: 1

----------
- Protocol notes: Number of nucleotides occluded by a bound furocoumarin molecule
Measurement type: Number

Cc1cc2occ(C)c2c2oc(=O)ccc12 | 12.5

(P) Cc1cc(=O)oc2c1ccc1occ(C)c12
(Q) COc1c2occc2cc2ccc(=O)oc12 [METHOXSALEN]
Prompt: Just curious, which one has the larger Number reading, P or Q ? Let me know the label of the one you choose.
Completion: P
(P: 12.5, Q: 7.81)

----------
- Protocol notes: Partition coefficient between octanol and water
- Type: physicochemical
Measurement type: Partition coefficient

// solved cases for Partition coefficient follow
Cc1cc(=O)oc2c1ccc1occ(C)c12 | 1190
O=c1ccc2ccc3occc3c2o1 [ANGELICIN] | 120

(I) Cc1coc2ccc3ccc(=O)oc3c12
(II) Cc1cc2occ(C)c2c2oc(=O)ccc12
Prompt: Just curious, which one has the larger Partition coefficient reading, I or II ? Let me know the label of the one you choose.
Completion: II

----------
- Protocol notes: Rate constant of the photoreaction between compound and DNA.
- Format: ADME
Measurement type: Rate constant (min⁻¹)

Cc1cc2occ(C)c2c2oc(=O)ccc12 | 0.059
Cc1cc2occc2c2oc(=O)ccc12 | 0.034
COc1c2occc2cc2ccc(=O)oc12 | 0.031
Cc1cc(=O)oc2c1ccc1occ(C)c12 | 0.073
Cc1cc2c(ccc3ccc(=O)oc32)o1 | 0.021

(I) Cc1coc2ccc3ccc(=O)oc3c12
(II) Cc1cc(=O)oc2c1ccc1occc12
Prompt: # compare Rate constant for I vs II ; return the one with the smaller value Let me know the label of the one you choose.
Completion: II
(II: 0.016 min⁻¹, I: 0.037 min⁻¹)

----------
- Protocol notes: Frequency of binding sites i.e., number of ligands bound per nucleotide
Measurement type: 1/n

Cc1cc(=O)oc2c1ccc1occ(C)c12 | 0.08
Cc1cc2occ(C)c2c2oc(=O)ccc12 | 0.08
O=c1ccc2ccc3occc3c2o1 | 0.063

(A) Cc1coc2ccc3ccc(=O)oc3c12
(B) COc1c2occc2cc2ccc(=O)oc12
Prompt: Just curious, which one has the larger 1/n reading, A or B ? Let me know the label of the one you choose.
Completion: B
(B: 0.128, A: 0.065)
